target: α4β1 integrin (Homo sapiens, UniProt P05556+P13612); construct: a cell line Jurkat, which is known to express α4β1 integrin; endogenous in cells; host or cells: Jurkat (human T cell line); assay: VCAM-1/α4β1 integrin binding inhibitory activity evaluation test (Jurkat cells binding to VCAM-1/Fc); format: cell-based; conditions: recombinant human VCAM-1/Fc
Sequence (P13612 34-1032): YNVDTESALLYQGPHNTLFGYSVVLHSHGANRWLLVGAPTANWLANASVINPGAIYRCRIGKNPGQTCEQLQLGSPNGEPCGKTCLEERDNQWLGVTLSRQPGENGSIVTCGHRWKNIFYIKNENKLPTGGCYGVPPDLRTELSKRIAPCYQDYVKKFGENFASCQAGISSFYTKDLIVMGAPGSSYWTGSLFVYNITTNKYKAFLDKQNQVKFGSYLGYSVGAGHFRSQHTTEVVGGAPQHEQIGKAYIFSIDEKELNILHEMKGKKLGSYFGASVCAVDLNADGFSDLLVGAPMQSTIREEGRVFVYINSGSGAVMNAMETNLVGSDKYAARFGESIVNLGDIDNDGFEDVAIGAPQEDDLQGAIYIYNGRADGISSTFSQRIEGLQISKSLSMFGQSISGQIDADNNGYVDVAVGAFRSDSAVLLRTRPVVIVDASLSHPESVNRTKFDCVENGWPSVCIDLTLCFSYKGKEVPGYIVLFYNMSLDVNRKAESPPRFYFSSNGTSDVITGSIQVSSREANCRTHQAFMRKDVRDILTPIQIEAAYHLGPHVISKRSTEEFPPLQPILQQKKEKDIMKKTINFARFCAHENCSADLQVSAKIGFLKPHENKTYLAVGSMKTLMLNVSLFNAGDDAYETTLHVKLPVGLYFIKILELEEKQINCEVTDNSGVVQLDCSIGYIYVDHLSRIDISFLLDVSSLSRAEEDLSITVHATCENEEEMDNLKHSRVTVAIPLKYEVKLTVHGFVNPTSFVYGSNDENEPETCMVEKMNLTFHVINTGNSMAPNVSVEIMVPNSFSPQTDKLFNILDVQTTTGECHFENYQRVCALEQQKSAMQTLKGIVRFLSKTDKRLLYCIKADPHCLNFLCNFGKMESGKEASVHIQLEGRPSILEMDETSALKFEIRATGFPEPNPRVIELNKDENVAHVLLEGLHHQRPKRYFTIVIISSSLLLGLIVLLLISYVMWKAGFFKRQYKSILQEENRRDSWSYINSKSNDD
Sequence (P05556 21-798): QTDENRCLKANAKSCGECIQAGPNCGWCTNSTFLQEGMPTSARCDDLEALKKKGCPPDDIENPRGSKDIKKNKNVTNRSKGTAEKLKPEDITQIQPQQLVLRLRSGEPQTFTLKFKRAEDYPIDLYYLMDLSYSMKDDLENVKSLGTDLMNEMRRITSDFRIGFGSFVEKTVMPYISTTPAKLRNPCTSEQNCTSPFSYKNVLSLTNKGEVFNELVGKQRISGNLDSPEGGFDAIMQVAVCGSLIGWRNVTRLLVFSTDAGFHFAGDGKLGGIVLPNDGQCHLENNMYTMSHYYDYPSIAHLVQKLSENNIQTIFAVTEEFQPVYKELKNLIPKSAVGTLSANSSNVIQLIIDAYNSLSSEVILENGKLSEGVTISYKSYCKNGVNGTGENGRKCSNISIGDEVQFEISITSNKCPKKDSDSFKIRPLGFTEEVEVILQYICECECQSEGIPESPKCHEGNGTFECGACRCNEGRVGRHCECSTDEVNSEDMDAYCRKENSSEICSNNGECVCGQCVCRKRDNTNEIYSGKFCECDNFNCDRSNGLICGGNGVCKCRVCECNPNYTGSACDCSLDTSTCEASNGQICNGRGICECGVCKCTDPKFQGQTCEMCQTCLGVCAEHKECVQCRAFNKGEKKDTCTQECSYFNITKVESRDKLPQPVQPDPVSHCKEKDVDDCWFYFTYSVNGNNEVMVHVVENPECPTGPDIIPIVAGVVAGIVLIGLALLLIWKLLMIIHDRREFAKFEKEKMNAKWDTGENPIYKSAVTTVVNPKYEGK
pIC50: −log10 of the molar value.
measure-name: pIC50

Cn1ccc(=O)n(-c2ccc(C[C@H](NC(=O)c3cc(F)c(NS(=O)(=O)c4ccc(NC(=O)C(C)(C)C(F)(F)F)cc4)cc3F)C(=O)O)cn2)c1=O | 4.60

I. Cc1cn(C)c(=O)n(-c2ccc(C[C@H](NC(=O)c3cc(F)c(NS(=O)(=O)c4ccc(NC(=O)C(C)(C)C)cc4)cc3F)C(=O)O)cn2)c1=O
II. Cn1c(=O)n(-c2ccc(C[C@H](NC(=O)c3cc(F)c(NS(=O)(=O)c4ccc(NC(=O)C(C)(C)C)cc4)cc3F)C(=O)O)cc2)c(=O)c2ccncc21
III. Cc1cn(C)c(=O)n(-c2ccc(C[C@H](NC(=O)c3cc(F)c(NS(=O)(=O)c4ccc(NC(=O)C(C)(C)C)cc4)cc3F)C(=O)O)nc2)c1=O
IV. Cn1c(=O)n(-c2ccc(C[C@H](NC(=O)c3cc(F)c(NS(=O)(=O)c4ccc(NC(=O)c5ccncc5)cc4)cc3F)C(=O)O)cc2)c(=O)c2ccncc21
Qu. // ascending sort on recorded pIC50 Form entry: labels listed in requested order.
Ans. I, III, IV, II
